Tested on: MCF7 multi-cell spheroids with HUVEC/MSC, viability
Assay: Anticancer human tumor MCF7 cell line growth inhibition [IpAb];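 note: spheroids exposed to agents for seven days before readout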
Settings: curve of first compound; second compound 0.316 µM
pIC50: −log10 of the molar value.
The following molecules are listed with their measured pIC50 values.
measuredAttribute: pIC50

Cn1cnc2c(F)c(Nc3ccc(Br)cc3Cl)c(C(=O)NOCCO)cc21 + CCN1CCN(Cc2ccc(Nc3ncc(F)c(-c4cc(F)c5nc(C)n(C(C)C)c5c4)n3)nc2)CC1: < 5.52
CC(=O)c1c(C)c2cnc(Nc3ccc(N4CCNCC4)cn3)nc2n(C2CCCC2)c1=O + CCN1CCN(Cc2ccc(Nc3ncc(F)c(-c4cc(F)c5nc(C)n(C(C)C)c5c4)n3)nc2)CC1: < 6.52
Cn1nccc1Nc1nccc(-c2ccn(C(CO)c3ccc(Cl)c(F)c3)c(=O)c2)n1 (stereo not drawn) + CCN1CCN(Cc2ccc(Nc3ncc(F)c(-c4cc(F)c5nc(C)n(C(C)C)c5c4)n3)nc2)CC1: < 5.00

Data provenance: PubChem BioAssay AID2060329
